This collection of values is drawn from ChEMBL document CHEMBL1138219.

# assay text: Cytotoxicity against human UACC62 cell line
# Format: cell-based
# test context: UACC-62 cells
The following molecules are listed with their measured GI50 values.
Answer with a number only, understood to be in µM.

Some entries whose results are on file:
smi: COc1cc2c(c(OC)c1OC)-c1c(c3ccc([N+](=O)[O-])cc3c(=O)n1CCCBr)C2=O
unit: µM
GI50: 30
--
smi: COc1cc2c(c(OC)c1OC)-c1c(c3ccc([N+](=O)[O-])cc3c(=O)n1CCCN=[N+]=[N-])C2=O
unit: µM
GI50: 32.4

The reported GI50 of the molecule COc1ccc2c(c1OC)-c1c(c3ccc([N+](=O)[O-])cc3c(=O)n1CCCN=[N+]=[N-])C2=O was 4.57

###

# assay text: Cytotoxicity against human HCT116 cell line
# Assay type: cell-based
# test context: HCT-116 cells
readout: GI50 (µM)
Answer with a number only, understood to be in µM.

smi: COc1cc2c(c(OC)c1OC)-c1c(c3ccc([N+](=O)[O-])cc3c(=O)n1CCCN=[N+]=[N-])C2=O
unit: µM
numeric value: 14.1
--
smi: COc1cccc2c1-c1c(c3ccc([N+](=O)[O-])cc3c(=O)n1CCCCl)C2=O
unit: µM
numeric value: 2.45
--
smi: COc1ccc2c(c1OC)-c1c(c3ccc([N+](=O)[O-])cc3c(=O)n1CCCBr)C2=O
unit: µM
numeric value: 19.1

Now consider the entry below.
The reported GI50 of the compound COc1cc2c(c(OC)c1OC)-c1c(c3ccc([N+](=O)[O-])cc3c(=O)n1CCCBr)C2=O was 18.6

###

The following compounds are listed with their measured GI50 values.
# assay text: Cytotoxicity against human OVCAR-3 cell line
# Type: cell-based
# test context: OVCAR-3 cells
Answer with a number only, understood to be in µM.

The reported GI50 of the compound COc1cccc2c1-c1c(c3ccc([N+](=O)[O-])cc3c(=O)n1CCCCl)C2=O was 50.1

The reported GI50 of the compound COc1ccc2c(c1OC)-c1c(c3ccc([N+](=O)[O-])cc3c(=O)n1CCCN)C2=O was 14.1

The reported GI50 of the compound COc1cc2c(c(OC)c1OC)-c1c(c3ccc([N+](=O)[O-])cc3c(=O)n1CCCN)C2=O was 10.7

The reported GI50 of the compound COc1ccc2c(c1)C(=O)c1c-2n(CCCN=[N+]=[N-])c(=O)c2cc([N+](=O)[O-])ccc12 was 0.155

###

The following molecules are listed with their measured GI50 values.
# assay text: Cytotoxicity against human SN12C cell line
# Type: cell-based
# test context: SN12C cells

Some entries whose results are on file:
molecule: COc1ccc2c(c1OC)-c1c(c3ccc([N+](=O)[O-])cc3c(=O)n1CCCBr)C2=O
result: 36.3 µM
--
molecule: COc1cc2c(c(OC)c1OC)-c1c(c3ccc([N+](=O)[O-])cc3c(=O)n1CCCN)C2=O
result: 3.98 µM
--
molecule: COc1ccc2c(c1OC)-c1c(c3ccc([N+](=O)[O-])cc3c(=O)n1CCCN=[N+]=[N-])C2=O
result: 11.5 µM
--
molecule: COc1cc2c(c(OC)c1OC)-c1c(c3ccc([N+](=O)[O-])cc3c(=O)n1CCCN=[N+]=[N-])C2=O
result: 30.2 µM
--
molecule: COc1cc2c(c(OC)c1OC)C(=O)[C@@H]1c3ccc([N+](=O)[O-])cc3C(=O)N(CCCBr)[C@H]21 (relative stereo)
result: 0.257 µM
--
molecule: COc1cc2c(c(OC)c1OC)-c1c(c3ccc([N+](=O)[O-])cc3c(=O)n1CCCBr)C2=O
result: 19.5 µM
--
molecule: COc1cc2c(cc1OC)-c1c(c3ccc([N+](=O)[O-])cc3c(=O)n1CCCN)C2=O
result: 0.851 µM
--
molecule: COc1cc2c(c(OC)c1OC)C(=O)c1c-2n(CCCN)c(=O)c2cc([N+](=O)[O-])ccc12
result: 2.09 µM
--
molecule: COc1ccc2c(c1)C(=O)c1c-2n(CCCN)c(=O)c2cc([N+](=O)[O-])ccc12
result: < 0.01 µM
--
molecule: COc1cc2c(c(OC)c1OC)C(=O)c1c-2n(CCCN=[N+]=[N-])c(=O)c2cc([N+](=O)[O-])ccc12
result: > 100 µM

The reported GI50 of the molecule COc1cc2c(cc1OC)-c1c(c3ccc([N+](=O)[O-])cc3c(=O)n1CCCN=[N+]=[N-])C2=O was 46.8 µM

The reported GI50 of the molecule COc1ccc2c(c1)C(=O)c1c-2n(CCCCl)c(=O)c2cc([N+](=O)[O-])ccc12 was < 0.01 µM

The reported GI50 of the molecule COc1cc2c(cc1OC)[C@@H]1[C@H](C2=O)c2ccc([N+](=O)[O-])cc2C(=O)N1CCCBr (relative stereo) was 7.59 µM

###

# assay text: Cytotoxicity against human OVCAR-3 cell line
# Assay type: cell-based
# test context: OVCAR-3 cells
The following compounds are listed with their measured GI50 values.
Answer with a number only, understood to be in µM.

Some entries whose results are on file:
compound: COc1ccc2c(c1OC)-c1c(c3ccc([N+](=O)[O-])cc3c(=O)n1CCCN=[N+]=[N-])C2=O
GI50 (µM): 56.2
--
compound: COc1cc2c(c(OC)c1OC)-c1c(c3ccc([N+](=O)[O-])cc3c(=O)n1CCCN=[N+]=[N-])C2=O
GI50 (µM): 45.7

Now consider the entry below.
The reported GI50 of the compound COc1cc2c(cc1OC)[C@@H]1[C@H](C2=O)c2ccc([N+](=O)[O-])cc2C(=O)N1CCCBr (relative stereo) was 2.04

###

# assay text: Cytotoxicity against human OVCAR-3 cell line
# Assay type: cell-based
# test context: OVCAR-3 cells
readout: log10(GI50) (log10 of the value in µM)
Please interpret these as log10 of GI50 where GI50 is in µM.

Some entries whose results are on file:
smi: COc1cc2c(c(OC)c1OC)C(=O)c1c-2n(CCCN)c(=O)c2cc([N+](=O)[O-])ccc12
log10(GI50): 0.02
--
smi: COc1cc2c(cc1OC)-c1c(c3ccc([N+](=O)[O-])cc3c(=O)n1CCCBr)C2=O
log10(GI50): 1.85
--
smi: COc1cc2c(cc1OC)-c1c(c3ccc([N+](=O)[O-])cc3c(=O)n1CCCN)C2=O
log10(GI50): 0.91
--
smi: COc1ccc2c(c1)C(=O)c1c-2n(CCCCl)c(=O)c2cc([N+](=O)[O-])ccc12
log10(GI50): 0.53

The reported log10(GI50) of the compound NCCCn1c2c(c3ccc([N+](=O)[O-])cc3c1=O)C(=O)c1cc3c(cc1-2)OCO3 was -0.52

###

# assay text: Cytotoxicity against human DU145 cell line
# Assay type: cell-based
# test context: DU-145 cells
The following compounds are listed with their measured log10 of GI50 values.
Please interpret these as log10 of GI50 where GI50 is in µM.

compound: COc1cc2c(cc1OC)-c1c(c3ccc([N+](=O)[O-])cc3c(=O)n1CCCN=[N+]=[N-])C2=O
log10 of GI50: 1.94
--
compound: COc1ccc2c(c1OC)-c1c(c3ccc([N+](=O)[O-])cc3c(=O)n1CCCN)C2=O
log10 of GI50: -0.08
--
compound: COc1cc2c(cc1OC)-c1c(c3ccc([N+](=O)[O-])cc3c(=O)n1CCCBr)C2=O
log10 of GI50: 1.39

The reported log10 of GI50 of the compound COc1cc2c(cc1OC)-c1c(c3ccc([N+](=O)[O-])cc3c(=O)n1CCCN)C2=O was -0.17

The reported log10 of GI50 of the compound COc1cc2c(c(OC)c1OC)C(=O)[C@@H]1c3ccc([N+](=O)[O-])cc3C(=O)N(CCCBr)[C@H]21 (relative stereo) was 0.01

The reported log10 of GI50 of the compound COc1ccc2c(c1)C(=O)c1c-2n(CCCCl)c(=O)c2cc([N+](=O)[O-])ccc12 was -1.44

The reported log10 of GI50 of the compound COc1cc2c(c(OC)c1OC)-c1c(c3ccc([N+](=O)[O-])cc3c(=O)n1CCCN)C2=O was 0.86

The reported log10 of GI50 of the compound COc1cc2c(cc1OC)[C@@H]1[C@H](C2=O)c2ccc([N+](=O)[O-])cc2C(=O)N1CCCBr (relative stereo) was 1.16

The reported log10 of GI50 of the compound COc1cc2c(c(OC)c1OC)-c1c(c3ccc([N+](=O)[O-])cc3c(=O)n1CCCN=[N+]=[N-])C2=O was 1.85

The reported log10 of GI50 of the compound COc1cc2c(c(OC)c1OC)C(=O)c1c-2n(CCCN)c(=O)c2cc([N+](=O)[O-])ccc12 was 0.06

The reported log10 of GI50 of the compound COc1ccc2c(c1OC)-c1c(c3ccc([N+](=O)[O-])cc3c(=O)n1CCCN=[N+]=[N-])C2=O was 0.69
